# Test system: Tov-21-G
# assayInfo: Primary qHTS to identify gynecologic anti-cancer compounds using libraries of approved drugs and bioactive compounds (AID 1345084); also: nearly all actives have a fitted effect of over 55% in size
# experimentalConditions: Gynecologic cancer cell panel viability, ATPlite luminescence, 48 h; series mostly up to 57.5 µM
# Text: National Center for Advancing Translational Sciences [NCATS] Assay Overview: Chemotherapeutic drug responses vary from cancer to cancer and from patient to patient. […] ATPlite is a luminescence based assay reliant on the conversion of a luciferase substrate to light in the presence of ATP. As a cytotoxic compound will suppress growth and decrease the number of cells, the concentration of ATP will decrease, and less light signal will be detected in the well. […]
Inconclusive results are not listed. Calls of active or inactive are those of the source. Calls follow the shape of the dose curve; as a rule, active = well fitted cell-killing curve with a large enough effect; inconclusive = small, poorly fitted or top-dose-only effect, or effect the other way; inactive = flat fitted curve, though single readings scatter.
Result category, one only: active, inactive

// known answers, use as guide
compound	categoryLabel
O=C(NNc1nc2cc(F)ccc2n2cccc12)c1cnccn1	active
COc1cc(CCc2ccc(OCC=C(C)C)cc2)cc(OC)c1OC	inactive
O=C(Nc1ccccc1Br)NC1CCN(c2ccc(C(F)(F)F)cn2)C1 (centres undefined)	inactive
CC(=O)O[C@@H]1CC2C(C)(C)C(=O)C=C[C@]2(C)C2CC[C@@]3(C)[C@H](c4ccoc4)OC(=O)[C@H]4O[C@]43[C@@]21C (some centres undefined)	inactive
C=C1/C(=C/C=C2\CCC[C@]3(C)[C@@H]([C@H](C)/C=C/[C@@H](C)C(C)C)CC[C@@H]23)C[C@@H](O)C[C@@H]1O	inactive
CC(=O)O[C@]1(C(C)=O)CC[C@H]2[C@@H]3CCC4=CC(=O)CCC4=C3[C@@H](c3ccc(N(C)C)cc3)C[C@@]21C	inactive
COc1ccc(C#Cc2ccc(C(=O)N3CCC[C@@H](CO)C3)cc2)cc1	inactive
O=C(NCC1(N2CCN(c3ccccc3)CC2)CCOCC1)c1cccnc1Sc1ccccc1	inactive
CC(C)(CNC(=O)c1cccc(-c2noc(C(F)(F)F)n2)c1)c1coc(-c2ccccc2)n1	inactive
Cc1[nH]c2ccccc2c1CCNC(=O)c1cccs1	inactive

Lookup: What call does the record list for C/C=C/C=C/C(=O)O[C@@H]1C=C2COC(=O)[C@]2(O)[C@@]2(C)CCCC(C)(C)[C@H]12 ?
Found: inactive

Lookup: Please share the test call associated with Cc1cccc(C#Cc2cc(F)cc(C#N)c2)n1 .
Found: inactive

Lookup: Name the outcome recorded for CC#C[C@@H](CC(=O)O)c1ccc(OCc2cccc(-c3ccc(C(F)(F)F)cc3)c2)cc1 in the assay.
Found: inactive

Lookup: Could you kindly confirm the outcome this assay logged for CNCCC(c1cccs1)c1ccc(O)c2ccccc12 (centres undefined) ?
Found: inactive

Lookup: Identify the outcome logged in this assay for the compound shown: CCN1CCN(Cc2ccc(NC(=O)c3ccc(C)c(Oc4ncnc5[nH]c(C)cc45)c3)cc2C(F)(F)F)CC1
Found: active

Lookup: What did the test return for COC1C(OC(=O)/C=C/C=C/C=C/C=C/C(=O)O)CCC2(CO2)C1C1(C)OC1CC=C(C)C (centres undefined) ?
Found: inactive

* * *

# Tested on: NIH3T3
# assayInfo: Cytotoxic Profiling of Annotated Libraries Using Quantitative High-Throughput Screening (AID 1296008); also: % is scaled to controls: 0 for no effect and ±100 for the full control effect; nearly all actives have a fitted effect of over 60% in size
# experimentalConditions: Five cell lines viability, CellTiter-Glo ATP luminescence, 48-72 h; hits give low values
Records with an inconclusive call do not appear.
parameterMeasured: max response (%)
Write the answer as a number in %, unit excluded.

Solved entries (count: 8):
compound	studySystem	resultUnits	max response
C[C@]12CC[C@@H]3c4ccc(O)c(O)c4CC[C@H]3[C@@H]1CCC2=O	NIH3T3	%	-17.9
O=C(Nc1ccc(Cl)cc1)C1CCCN(C(=O)c2cccc(-c3ccco3)c2)C1 (centres undefined)	NIH3T3	%	-26.4
C#CCCCn1cc(-c2cccc3c2N[C@H](C)CC(=O)N3)cn1	NIH3T3	%	-3.84
Fc1ccc(N2CCCCC2)c(NC(=S)c2ccncc2)c1	NIH3T3	%	-6.72
CCN(CC)CCCS(=O)(=O)N[C@H](CCc1ccccc1)c1nc(Cc2ccc(Br)cc2)no1	NIH3T3	%	-16.9
O=C(NCc1ccccc1-c1ccccc1C(=O)NCCc1ccccn1)OCc1ccccc1	NIH3T3	%	0.337
COC1=CC(=O)C[C@@H](C)[C@@]12Oc1c(Cl)c(OC)cc(OC)c1C2=O	NIH3T3	%	-50.9
C[C@@H](O[C@H]1OCCN(Cc2nn(P(=O)(O)O)c(=O)[nH]2)[C@H]1c1ccc(F)cc1)c1cc(C(F)(F)F)cc(C(F)(F)F)c1	NIH3T3	%	-9.38

Lookup: Form entry - test system: NIH3T3; read-out: max response; compound: Cc1cccc(-c2[nH]ncc2-c2ccc(F)c(-c3cnn(CCO)c3)c2)n1
Found: -23.9

Lookup: Checklist item: max response tested on NIH3T3, entry CN1CCN(C(=O)CN[C@@H]2C[C@H]2c2ccc(OCc3ccccc3)cc2)CC1 , value?
Found: -9.45

Lookup: What is its max response for NIH3T3? Entry: CCC(C)c1ccc(NC(=O)Cn2cnc3c2c(=O)n(C)c(=O)n3C)cc1 (centres undefined)
Found: -2.04

Lookup: Give the reported max response for CCNC1(C(N)=O)CN(c2nc(C)nc3c(-c4ccc(Cl)cc4)c(-c4ccccc4Cl)nn23)C1 (system: NIH3T3).
Found: -3.55

Lookup: Recall the recorded max response for NC(=O)N1CCC(CC(=O)N2CCC(C3c4ncc(Br)cc4CCc4cc(Cl)cc(Br)c43)CC2)CC1 (centres undefined) with NIH3T3 and state it.
Found: 2.37

Lookup: max response of CC(=O)C=C=C1C(C)(C)CC(O)CC1(C)O[C@@H]1O[C@H](CO[C@H]2OC[C@](O)(CO)[C@H]2O)[C@@H](O)[C@H](O)[C@H]1O (some centres undefined) on NIH3T3?
Found: 1.53

Lookup: Form entry - test system: NIH3T3; read-out: max response; compound: C=CCc1ccc(OC(C)Cc2ccc(OC)c(OC)c2)c(OC)c1 (centres undefined)
Found: -6.99

Lookup: Query max response on NIH3T3 for CN1CCN(c2ccc(-c3cccc(CN4CCOCC4)c3)cc2NC(=O)c2c[nH]c(=O)cc2C(F)(F)F)CC1
Found: -7.39

Lookup: Under NIH3T3: max response value of Cc1nc(C#Cc2ccnc(Cl)c2)c(C)n1-c1ccc(OC(F)(F)F)cc1 ?
Found: -27.8

Lookup: Given the entry CNCCN1CCC(c2cc(CN(C)C(=O)c3cccc(Oc4ccccc4)c3)ccn2)CC1 , what max response was observed with NIH3T3?
Found: 1.12

Lookup: Provide the documented max response with NIH3T3 as the system for CCc1ccc(-c2nc(CSCC(=O)NCCc3ccccc3)c(C)o2)cc1
Found: -12.1
